Each record here notes measured inhibition at 15 min, 10 µM.
target: CYP2E1 (Homo sapiens)
Sequence (P05181 whole entry): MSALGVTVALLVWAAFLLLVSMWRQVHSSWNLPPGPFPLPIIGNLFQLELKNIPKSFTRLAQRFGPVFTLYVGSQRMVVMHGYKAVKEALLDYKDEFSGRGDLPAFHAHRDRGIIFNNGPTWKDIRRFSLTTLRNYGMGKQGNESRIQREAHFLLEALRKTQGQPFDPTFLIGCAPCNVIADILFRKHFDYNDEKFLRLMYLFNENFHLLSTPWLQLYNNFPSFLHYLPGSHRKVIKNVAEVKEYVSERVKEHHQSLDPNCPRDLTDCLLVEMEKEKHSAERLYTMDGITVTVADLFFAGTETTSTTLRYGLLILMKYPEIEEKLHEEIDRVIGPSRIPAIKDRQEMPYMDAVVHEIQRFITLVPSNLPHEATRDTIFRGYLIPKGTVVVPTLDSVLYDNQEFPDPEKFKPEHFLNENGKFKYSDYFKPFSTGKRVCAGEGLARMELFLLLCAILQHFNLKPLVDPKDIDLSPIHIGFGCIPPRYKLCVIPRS
protocol-description: in vitro
particulars: human, microsomes, pH 7.4
assay-metric: inhibition at 15 min, 10 µM

>  <molecule>
O=c1cc(-c2ccc(O)c(-c3c(O)cc(O)c4c(=O)cc(-c5ccc(O)cc5)oc34)c2)oc2cc(O)cc(O)c12 [Amentoflavone]

>  <target>
CYP2E1 (Homo sapiens)

>  <reported>
> 50%

$$$$
>  <molecule>
O=c1cc(-c2ccc(O)cc2)oc2cc(O)cc(O)c12 [Apigenin]

>  <target>
CYP2E1 (Homo sapiens)

>  <reported>
> 50%

$$$$

====

target: UniProt P33261
Sequence (P33261 whole entry): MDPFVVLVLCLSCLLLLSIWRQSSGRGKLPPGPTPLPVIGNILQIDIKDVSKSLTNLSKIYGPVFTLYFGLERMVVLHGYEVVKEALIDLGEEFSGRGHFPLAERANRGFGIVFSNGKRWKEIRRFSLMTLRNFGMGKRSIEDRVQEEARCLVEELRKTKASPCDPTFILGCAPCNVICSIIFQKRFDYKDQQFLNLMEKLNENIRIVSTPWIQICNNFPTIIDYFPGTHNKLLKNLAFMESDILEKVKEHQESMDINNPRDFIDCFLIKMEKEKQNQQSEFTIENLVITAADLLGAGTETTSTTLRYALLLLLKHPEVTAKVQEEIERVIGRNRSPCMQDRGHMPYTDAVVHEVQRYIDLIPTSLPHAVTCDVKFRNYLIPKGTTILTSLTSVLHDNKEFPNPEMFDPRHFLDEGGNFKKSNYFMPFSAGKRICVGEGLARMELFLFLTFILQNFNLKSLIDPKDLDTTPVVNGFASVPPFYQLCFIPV
protocol-description: in vitro
particulars: human, microsomes, pH 7.4

>  <smiles-data>
O=c1cc(-c2ccc(O)c(-c3c(O)cc(O)c4c(=O)cc(-c5ccc(O)cc5)oc34)c2)oc2cc(O)cc(O)c12

>  <inhibition at 15 min, 10 µM>
> 50%

$$$$

From: paper PMC9975586
